Values compiled from patent US8163909B2.

# protocol: Microsomal stability assay, rat liver microsomes;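 note: rat liver microsomes (0.25 mg/mL) with about 1 µM compound plus 1 mM NADPH, pH 7.4, 37 °C for 30 min, parent left measured by LC-MS/MS against 0 min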
# test.parameters: rat liver microsomal data
measured.parameter: RLM
Record the result as number plus unit.

CO[C@H](C)C(=O)N[C@@H](Cc1ccccc1)[C@H](O)CN[C@H]1CC2(CCC2)Oc2c(Br)cc(CC(C)C)cc21: 775 µL/min/mg
C#Cc1cccc(C[C@H](NC(=O)C(OC)OC)[C@H](O)CN[C@H]2CC3(CCC3)Oc3ncc(CC(C)(C)C)cc32)c1: 44 µL/min/mg
C#Cc1cc(F)cc(C[C@H](NC(=O)COC)[C@H](O)CN[C@H]2CC3(CCC3)Oc3ncc(CC(C)C)cc32)c1: 78 µL/min/mg
COCC(=O)N[C@@H](Cc1cc(F)cc(F)c1)[C@H](O)CN[C@H]1CC2(CCC2)Oc2c(-c3cncs3)cc(CC(C)C)cc21: 249 µL/min/mg
COCC(=O)N[C@@H](Cc1ccc(F)cc1)[C@H](O)CN[C@H]1CC2(CCC2)Oc2c1cc(CC(C)(C)C)nc2C#N: 221 µL/min/mg

Give reported RLM value for C#Cc1cccc(C[C@H](NC(=O)[C@@H]2CCCO2)[C@H](O)CN[C@H]2CC3(CCC3)Oc3ncc(CC(C)(C)C)cc32)c1
55 µL/min/mg
